tested on: adult female L. cuprina; type: in vivo; details: strain LS2, topical in dioctylphthalate, mortality at 24 hours
Endpoint: LD50 LS2 (OP Susceptible), with 95% confidence limits

molecule="CC(C)OP(=O)(OC=C(Cl)Cl)OC(C)C [Isopropyl Dichlorvos, 2,2-dichlorovinyl di-isopropyl phosphate]" tested_on="adult female L. cuprina" observed_result="3500 (2200–4800), ng/fly"
molecule="COP(=O)(OC)OC=C(Cl)Cl [Dichlorvos, 2,2-dichlorovinyl dimethyl phosphate]" tested_on="adult female L. cuprina" observed_result="41 (35–51), ng/fly"
molecule="CCOC(=O)CC(SP(=S)(OC)OC)C(=O)OCC (centres unmarked)" tested_on="adult female L. cuprina" observed_result="550 (480–610), ng/fly"
molecule=CCOP(=S)(OCC)Oc1ccc([N+](=O)[O-])cc1 tested_on="adult female L. cuprina" observed_result="52 (48–55), ng/fly"
molecule=COP(=S)(OC)Oc1ccc(SC)c(C)c1 tested_on="adult female L. cuprina" observed_result="61 (42–87), ng/fly"

* * *

System: adult female L. cuprina
Format: in vivo
Conditions: strain LS2, topical in dioctylphthalate, mortality at 24 hours
Procedure: […] The toxicity of OPs in adult female L. cuprina was determined 3 or 4 days post-eclosion by application of OPs to the scutellum in 0.7 μl dioctylphthalate (Busvine, J. R., Bell, J. D. and Guneidy, A. M., Bulletin of Entomological Research 54: 589, 1963;; Townsend, M. G. and Busvine, J. R., Entomology Experimental and Applied 12: 243, 1969). […] Mortality was determined 24 hours later. […]
Measured LD50 LS2 (OP Susceptible), with 95% confidence limits of individual entries
Endpoint: LD50 LS2 (OP Susceptible), with 95% confidence limits

molecule="CCOP(=S)(OCC)Oc1ccc(SC)c(C)c1 [Fenthion-ethyl]" tested_on="adult female L. cuprina" observed_result="330 (290–370) ng/fly"
molecule="COP(=S)(OC)Oc1ccc([N+](=O)[O-])cc1 [Parathion-methyl]" tested_on="adult female L. cuprina" observed_result="16 (11–20), ng/fly"
molecule="CCOP(=O)(OC=C(Cl)Cl)OCC [Ethyl Dichlorvos, 2,2-dichlorovinyl diethyl phosphate]" tested_on="adult female L. cuprina" observed_result="360 (300–420), ng/fly"
molecule="CCOC(=O)CC(SP(=S)(OC(C)C)OC(C)C)C(=O)OCC (centres unmarked) [Isopropyl Malathion]" tested_on="adult female L. cuprina" observed_result="3600 (2700–4900), ng/fly"
molecule="CCOP(=S)(OCC)Oc1cc(C)nc(C(C)C)n1 [Diazinon]" tested_on="adult female L. cuprina" observed_result="57 (40–79), ng/fly"
